Each entry below lists one item and its recorded pIC50 value.
Biological target: T1, rat amylin receptor (rat calcitonin receptor + rat RAMP 3) (rat, UniProt P32214 25-516; Q9JJ73 23-147)
T1 construct: whole, on cells; Used as membranes prepared from the transfected cells (Assay VI); also called rAmylin-R; rat amylin 3(a) receptor
T1 sequence (looked up) 1: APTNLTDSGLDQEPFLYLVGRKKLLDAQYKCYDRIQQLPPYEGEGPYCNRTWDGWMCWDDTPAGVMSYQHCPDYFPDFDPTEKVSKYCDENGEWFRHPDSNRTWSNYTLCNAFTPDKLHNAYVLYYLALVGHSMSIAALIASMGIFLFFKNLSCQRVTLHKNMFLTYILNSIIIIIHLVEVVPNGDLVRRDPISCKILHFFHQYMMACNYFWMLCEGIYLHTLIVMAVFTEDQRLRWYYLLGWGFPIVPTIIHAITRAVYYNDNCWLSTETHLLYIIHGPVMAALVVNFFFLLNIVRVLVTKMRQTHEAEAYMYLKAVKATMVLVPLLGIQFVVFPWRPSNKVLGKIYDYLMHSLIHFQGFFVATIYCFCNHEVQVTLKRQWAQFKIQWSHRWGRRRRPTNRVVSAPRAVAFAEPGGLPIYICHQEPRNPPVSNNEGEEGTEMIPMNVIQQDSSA
T1 sequence (looked up) 2: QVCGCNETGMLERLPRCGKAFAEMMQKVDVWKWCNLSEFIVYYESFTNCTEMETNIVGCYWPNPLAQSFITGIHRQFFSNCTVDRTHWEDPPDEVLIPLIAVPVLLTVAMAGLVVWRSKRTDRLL
Test: SPA competition binding, displacement of 125I-rat amylin from membranes of BHK tk'ts 13 cells transfected with rat calcitonin receptor + rat RAMP 3 (Assay VI)
Numbered stars: 1 amine (or outer) side, 2 acyl side, 3 side chain; on linkers, the order of the positions; unused ones are H or OH. Bridge positions count the residues as written; N and C are the ends. Side chains are listed from the residue outwards. Ends that are not written are not given here. * marks the point of attachment. C20 diacid = O=C(O)CCCCCCCCCCCCCCCCCCC(=O)*; γGlu = O=C(O)[C@H](CCC(=O)[*:2])N[*:1]
Schema: pIC50 number; meaning minus log10 of the concentration expressed in molar units.

Here's what some known entries look like.
INSERT INTO assay_data (binder, readout_number) VALUES
  ('{C20 diacid-γGlu}-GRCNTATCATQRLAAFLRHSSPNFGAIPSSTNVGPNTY-NH2 (disulfide 3-8, not restated for each compound)', 9.36),
  ('K([γGlu-γGlu-C20 diacid])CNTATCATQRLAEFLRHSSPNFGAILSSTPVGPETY-NH2 (disulfide 2-7 (inferred), not restated for each compound)', 9.35);

The record that follows has no pIC50 shown yet.
State its pIC50 for this binder: K([γGlu-γGlu-C20 diacid])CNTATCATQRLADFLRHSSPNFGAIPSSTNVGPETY-NH2 (disulfide 2-7, not restated for each compound)
9.49
